system: wheat (Triticum aestivum); assay: Test A greenhouse herbicide test, pre- and postemergence; format: in vivo; conditions: Postemergence, 500 g ai/ha; visual rating after approx. 10 d, 0 to 100 scale (0 no effect, 100 complete control)
Item-by-item account of Plant response rating, Wheat

>  <smiles.record>
CCC(=O)Oc1c(C)nn(C)c(=O)c1-c1ccc(F)c2ccccc12

>  <Plant response rating, Wheat>
70

$$$$
>  <smiles.record>
Cc1nn(C)c(=O)c(-c2c([N+](=O)[O-])ccc3ccccc23)c1OC(=O)C1CC1

>  <Plant response rating, Wheat>
0

$$$$
>  <smiles.record>
CC(=O)Oc1c(Cl)nn(C)c(=O)c1-c1c(C)sc2ccc(C(F)(F)F)cc12

>  <Plant response rating, Wheat>
50

$$$$
>  <smiles.record>
Cc1nn(C)c(=O)c(-c2ccc(Cl)c3ccccc23)c1OS(=O)(=O)C(F)(F)F

>  <Plant response rating, Wheat>
0

$$$$
>  <smiles.record>
Cc1ccc2c(-c3c(O)c(C)nn(C)c3=O)c(C)ccc2c1

>  <Plant response rating, Wheat>
40

$$$$
>  <smiles.record>
Cc1nn(C)c(=O)c(-c2cccc3ccc(Br)cc23)c1O

>  <Plant response rating, Wheat>
20

$$$$
>  <smiles.record>
CC(=O)Oc1c(C)nn(C)c(=O)c1-c1c(C)cc(C)c2ccccc12

>  <Plant response rating, Wheat>
30

$$$$
>  <smiles.record>
COC(=O)Oc1c(OC)nn(C)c(=O)c1-c1c(C)sc2ccc(Cl)cc12

>  <Plant response rating, Wheat>
30

$$$$
>  <smiles.record>
CCC(=O)Oc1c(Br)nn(C)c(=O)c1-c1c(C)ccc2ccccc12

>  <Plant response rating, Wheat>
60

$$$$
